Sourced from PubChem BioAssay AID1963971

Tested on: 953936-095-R-J2-PDC spheroids with HUVEC/MSC, viability;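 note: spheroids exposed to compounds for seven days before read-out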
Test: Anticancer human tumor 953936-095-R-J2-PDC patient-derived cervical squamous cell carcinoma cell line growth inhibition [PI3K]
Details: second compound 0.1 µM; first compound 0.0316 µM; stronger effect = lower value
From the text: Combinatorial screen of targeted agents with the PI3K inhibitors inavolisib, alpelisib, duvelisib, and copanlisib in multi-cell type tumor spheroids A high-throughput screen of multi-cell type tumor spheroids was designed to identify active combinations of targeted small molecules and PI3K pathway inhibitors. […] Compounds. […] If the clinical Cmax for an agent had not been determined, the highest concentration tested was 10 microM. […]
Records here are stratified by viability, T/C; strata: low: < 20%; intermediate: ≥ 20% and < 60%; high: ≥ 60%

Below are worked cases with known answers.
{"COMPOUND": "CC(C)n1nc(-c2ccc3oc(N)nc3c2)c2c(N)ncnc21 + COc1c(OCCCN2CCOCC2)ccc2c3n(c(=NC(=O)c4cnc(N)nc4)nc12)CCN3", "STUDY_SYSTEM": "953936-095-R-J2-PDC spheroids with HUVEC/MSC, viability", "ASSIGNED_CATEGORY": "low"}
{"COMPOUND": "CC(C)NCC(C(=O)N1CCN(c2ncnc3c2C(C)CC3O)CC1)c1ccc(Cl)cc1 (stereo unspecified) + CC(Nc1ccc2c(c1)OCCn1cc(N3C(=O)OCC3C(F)F)nc1-2)C(N)=O", "STUDY_SYSTEM": "953936-095-R-J2-PDC spheroids with HUVEC/MSC, viability", "ASSIGNED_CATEGORY": "intermediate"}
{"COMPOUND": "Cn1ncc(Cl)c1-c1cc(C(=O)NC(CN)Cc2cccc(F)c2)sc1Cl (stereo unspecified) + COc1c(OCCCN2CCOCC2)ccc2c3n(c(=NC(=O)c4cnc(N)nc4)nc12)CCN3", "STUDY_SYSTEM": "953936-095-R-J2-PDC spheroids with HUVEC/MSC, viability", "ASSIGNED_CATEGORY": "intermediate"}
{"COMPOUND": "CC1(C)CCC(Nc2ncc(C(F)(F)F)c(-c3c[nH]c4c(P(C)(C)=O)c(C#N)ccc34)n2)CN1 (stereo unspecified) + COc1c(OCCCN2CCOCC2)ccc2c3n(c(=NC(=O)c4cnc(N)nc4)nc12)CCN3", "STUDY_SYSTEM": "953936-095-R-J2-PDC spheroids with HUVEC/MSC, viability", "ASSIGNED_CATEGORY": "low"}
{"COMPOUND": "C=CC(=O)N1CCN(c2nc(=O)n(-c3c(C)ccnc3C(C)C)c3nc(-c4c(O)cccc4F)c(F)cc23)C(C)C1 (stereo unspecified) + CC(Nc1ncnc2nc[nH]c12)c1cc2cccc(Cl)c2c(=O)n1-c1ccccc1", "STUDY_SYSTEM": "953936-095-R-J2-PDC spheroids with HUVEC/MSC, viability", "ASSIGNED_CATEGORY": "high"}

Ask: Lab log: CCCS(=O)(=O)Nc1ccc(F)c(C(=O)c2c[nH]c3ncc(-c4ccc(Cl)cc4)cc23)c1F + Cc1nc(NC(=O)N2CCCC2C(N)=O)sc1-c1ccnc(C(C)(C)C(F)(F)F)c1 — assign viability, T/C category
Reply: high

Ask: Lab log: CNC(=O)c1ccc(N2C(=S)N(c3ccc(C#N)c(C(F)(F)F)c3)C(=O)C2(C)C)cc1F + COc1c(OCCCN2CCOCC2)ccc2c3n(c(=NC(=O)c4cnc(N)nc4)nc12)CCN3 — assign viability, T/C category
Reply: low

Ask: Lab log: CC(C)n1nc(-c2ccc3oc(N)nc3c2)c2c(N)ncnc21 + Cc1nc(NC(=O)N2CCCC2C(N)=O)sc1-c1ccnc(C(C)(C)C(F)(F)F)c1 — assign viability, T/C category
Reply: intermediate

Ask: Lab log: CCN1CCN(Cc2ccc(Nc3ncc(F)c(-c4cc(F)c5nc(C)n(C(C)C)c5c4)n3)nc2)CC1 + COc1c(OCCCN2CCOCC2)ccc2c3n(c(=NC(=O)c4cnc(N)nc4)nc12)CCN3 — assign viability, T/C category
Reply: low

Ask: Lab log: CC1(C)CCC(CN2CCN(c3ccc(C(=O)NS(=O)(=O)c4ccc(NCC5CCOCC5)c([N+](=O)[O-])c4)c(Oc4cnc5[nH]ccc5c4)c3)CC2)=C(c2ccc(Cl)cc2)C1 + COc1c(OCCCN2CCOCC2)ccc2c3n(c(=NC(=O)c4cnc(N)nc4)nc12)CCN3 — assign viability, T/C category
Reply: low
